Reference source: patent US20250019440A1

Each entry below carries its recorded pEC50.
# SYSTEM: T1, Human CLDN18.2 (human)
# T1 construct: On transfected HEK293-6E cells; also called Claudin18.2
# PROTOCOL SUMMARY: FACS on transfected HEK293-6E cells, 4 parameter logistic fit
Value format note: pEC50 is -log10 of concentration (mol/L); just state the number.

Some binders with known pEC50 results, for comparison:
BINDER	REPORTED MEASUREMENT
v37408 (antibody, human IgG1, V domains shown, Humanized, recombinant human IgG1-based monoclonal antibody; also called H4-L2) VH: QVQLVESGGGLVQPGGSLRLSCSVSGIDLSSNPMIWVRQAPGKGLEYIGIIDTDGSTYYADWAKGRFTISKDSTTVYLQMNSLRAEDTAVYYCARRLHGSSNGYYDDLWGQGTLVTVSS VL: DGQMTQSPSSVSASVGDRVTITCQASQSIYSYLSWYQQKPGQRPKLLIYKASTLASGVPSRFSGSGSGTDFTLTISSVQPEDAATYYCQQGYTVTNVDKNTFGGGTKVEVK	8.73
v37410 (antibody, human IgG1, V domains shown, Humanized, recombinant human IgG1-based monoclonal antibody; also called H3-L4) VH: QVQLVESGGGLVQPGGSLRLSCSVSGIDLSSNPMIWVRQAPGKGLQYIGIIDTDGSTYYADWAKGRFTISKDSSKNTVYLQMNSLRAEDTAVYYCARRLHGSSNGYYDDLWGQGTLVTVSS VL: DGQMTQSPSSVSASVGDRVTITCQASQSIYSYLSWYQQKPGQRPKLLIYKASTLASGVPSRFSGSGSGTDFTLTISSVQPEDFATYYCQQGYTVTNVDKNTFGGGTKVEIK	9.01
v35777 (antibody, human IgG1, V domains shown, Rabbit variable regions on human IgG1 (constant region starts at alanine Kabat-114) and human C kappa (starts at arginine Kabat-108); also called parental rabbit chimeric; rabbit-human chimeric IgG1/kappa antibody construct) VH: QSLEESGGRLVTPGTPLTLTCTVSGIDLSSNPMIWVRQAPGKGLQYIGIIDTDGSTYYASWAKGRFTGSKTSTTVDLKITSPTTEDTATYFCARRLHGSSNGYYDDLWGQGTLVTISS VL: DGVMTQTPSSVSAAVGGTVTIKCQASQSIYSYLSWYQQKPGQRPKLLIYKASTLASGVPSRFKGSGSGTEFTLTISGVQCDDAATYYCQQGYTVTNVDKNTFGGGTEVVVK	8.89
v37407 (antibody, human IgG1, V domains shown, Humanized, recombinant human IgG1-based monoclonal antibody; also called H4-L4) VH: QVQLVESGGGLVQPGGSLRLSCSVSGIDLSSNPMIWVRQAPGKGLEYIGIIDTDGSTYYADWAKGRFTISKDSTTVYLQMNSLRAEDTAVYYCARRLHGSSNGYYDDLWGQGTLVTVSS VL: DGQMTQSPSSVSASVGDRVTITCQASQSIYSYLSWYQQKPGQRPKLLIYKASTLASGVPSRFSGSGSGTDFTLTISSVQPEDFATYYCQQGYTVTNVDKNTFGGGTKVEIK	8.81
v37411 (antibody, human IgG1, V domains shown, Humanized, recombinant human IgG1-based monoclonal antibody; also called H5-L4) VH: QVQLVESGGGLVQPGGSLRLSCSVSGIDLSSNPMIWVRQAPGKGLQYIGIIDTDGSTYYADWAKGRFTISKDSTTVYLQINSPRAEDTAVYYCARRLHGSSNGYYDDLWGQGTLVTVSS VL: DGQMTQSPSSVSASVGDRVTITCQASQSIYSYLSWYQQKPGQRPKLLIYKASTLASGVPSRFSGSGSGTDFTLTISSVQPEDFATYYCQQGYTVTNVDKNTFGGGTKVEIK	8.98

Request the reported pEC50 associated with v37409 (antibody, human IgG1, V domains shown, Humanized, recombinant human IgG1-based monoclonal antibody; also called H2-L4) VH: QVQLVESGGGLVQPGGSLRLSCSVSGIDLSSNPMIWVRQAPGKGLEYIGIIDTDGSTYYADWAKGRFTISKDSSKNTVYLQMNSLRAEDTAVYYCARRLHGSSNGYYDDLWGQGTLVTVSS VL: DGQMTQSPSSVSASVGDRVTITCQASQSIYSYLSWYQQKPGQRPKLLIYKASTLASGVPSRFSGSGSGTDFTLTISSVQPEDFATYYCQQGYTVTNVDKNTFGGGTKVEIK
8.91
